Values compiled from paper PMC9186491.

experiment: LM T1/2, D; assay type: in vitro ADME; conditions: dog, liver microsomes
measurement.type: half-life (min)
Give the value, in units of min, as a plain number.

>>> measured_result("CNC(=O)c1nnc(NC(=O)C2CC2)c2[nH]c(-c3ccccc3OC)cc12 [SHR2178]")
40

API: the following record is the query input.
State the recorded half-life for this entry: [2H]C([2H])([2H])NC(=O)c1nnc(NC(=O)N2CCC2)cc1Nc1cccc(-c2ncn(C)n2)c1OC [SHR9332]
46.5
